Reference for the values: patent EP4350345A2

binders and their reported binding as % of Reference Sequence (=100%)
system_name: purified interference factor(s) from serum of Donor B
run_description: SPR, interference factor on CM5 chip
Supply the numeric figure in %, leaving out any unit text.

Some solved cases for reference:
>>> recorded_measurement("Nanobody or Nanobody construct of SEQ ID NO: 85 (VHH) VHH: EVQLVESGGGSVQPGGSLRLSCAASRSIGRLDRMGWYRHRPGEPRELVATITGGSSINYGDSVKGRFTISIDNSKNTVYLQMNSLRPEDTAVYYCNFNKYVTSRDTWGQGTLVQVGG")
5
>>> recorded_measurement("Nanobody or Nanobody construct of SEQ ID NO: 81 (VHH) VHH: EVQLVESGGGVVQPGGSLRLSCAASRSIGRLDRMGWYRHRPGEPRELVATITGGSSINYGDSVKGRFTISIDNSKNTVYLQMNSLRPEDTAVYYCNFNKYVTSRDTWGQGTLVTVSS")
50
>>> recorded_measurement("Nanobody or Nanobody construct of SEQ ID NO: 87 (VHH) VHH: EVQLVESGGGSVQPGGSLRLSCAASRSIGRLDRMGWYRHRPGEPRELVATITGGSSINYGDSVKGRFTISIDNSKNTVYLQMNSLRPEDTAVYYCNFNKYVTSRDTWGQGTLVTVGG")
5
>>> recorded_measurement("Nanobody or Nanobody construct of SEQ ID NO: 65 (VHH) VHH: EVQLVESGGGLVQAGGSLRLSCAASRSIGRLDRMGWYRHRPGEPRELVATITGGSSINYGDSVKGRFTISIDNSKNTVYLQMNSLRPEDTAVYYCNFNKYVTSRDTWGQGTLVTVSS")
121
>>> recorded_measurement("Nanobody or Nanobody construct of SEQ ID NO: 78 (VHH) VHH: EVQLVESGGGLVRPGGSLRLSCAASRSIGRLDRMGWYRHRPGEPRELVATITGGSSINYGDSVKGRFTISIDNSKNTVYLQMNSLRPEDTAVYYCNFNKYVTSRDTWGQGTLVTVSS")
96
>>> recorded_measurement("Nanobody or Nanobody construct of SEQ ID NO: 69 (VHH) VHH: EVQLVESGGGLVQPGGSLRLSCAASRSIGRLDRMGWYRHRPGEPRELVATITGGSSINYGDSVKGRFTISIDNSKNTVYLQMNSLRPEDTAVYYCNFNKYVTSRDTWGQGTQVTVSS")
120

Shift focus to the following entry.
Answer with reported binding as % of Reference Sequence (=100%) of Nanobody or Nanobody construct of SEQ ID NO: 42 (VHH) EVQLVESGGGLVQPGGSLRLSCAASGRTFSYNPMGWFRQAPGKGRELVAAISRTGGSTYYPDSVEGRFTISRDNAKRMVYLQMNSLRAEDTAVYYCAAAGVRAEDGRVRTLPSEYTFWGQGTQVTVSSAAAEVQLVESGGGLVQPGGSLRLSCAASGRTFSYNPMGWFRQAPGKGRELVAAISRTGGSTYYPDSVEGRFTISRDNAKRMVYLQMNSLRAEDTAVYYCAAAGVRAEDGRVRTLPSEYTFWGQGTQVTVSSA
4
